Recorded pIC50 by entry
# Target entity: human CD38 (Homo sapiens, UniProt P28907)
# Sequence (P28907 1-300): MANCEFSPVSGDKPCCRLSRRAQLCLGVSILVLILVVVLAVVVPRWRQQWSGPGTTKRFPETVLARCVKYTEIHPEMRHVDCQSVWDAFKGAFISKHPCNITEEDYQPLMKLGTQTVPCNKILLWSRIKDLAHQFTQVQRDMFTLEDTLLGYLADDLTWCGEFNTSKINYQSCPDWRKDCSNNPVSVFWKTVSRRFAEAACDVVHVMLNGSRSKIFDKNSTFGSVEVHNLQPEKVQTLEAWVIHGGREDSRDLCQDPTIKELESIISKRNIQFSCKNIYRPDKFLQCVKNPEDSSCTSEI
# Experimental protocol: human recombinant CD38 enzyme assay (hydrolysis of NAD+)
# Condition notes: human recombinant CD38, 0.4 nM enzyme, 62.5 μM NAD+; read-out: hCD38 BioChem IC50
Schema: pIC50 number; meaning minus log10 of the concentration expressed in molar units.

Recorded pIC50, per entry:
{"Compound": "O=C(NC1CCS(=O)(=O)CC1)c1cc(C2CC2)nc(-c2cncs2)n1 [Compound 142]", "Target entity": "human CD38 (Homo sapiens, UniProt P28907)", "pIC50": 5.77}
{"Compound": "Cn1cncc1-c1nc(C(=O)Nc2ccc(OC(F)F)nc2)cc(C2CCOCC2)n1 [Compound 282]", "Target entity": "human CD38 (Homo sapiens, UniProt P28907)", "pIC50": 8.62}
{"Compound": "Cn1cncc1-c1nc(C(=O)Nc2ccc(C(F)F)nc2)cc(C(C)(C)O)n1 [Compound 159]", "Target entity": "human CD38 (Homo sapiens, UniProt P28907)", "pIC50": 8.05}

// moving on: another record for pIC50
Request: Give its pIC50 value. Item: COc1cc(C(=O)N[C@H]2CC[C@H](OC)CC2)nc(-c2cncn2C)n1 [Compound 128]
Response: 8.05
